Reference source: ChEMBL document CHEMBL4425130

- protocol: Clearance in Han Wistar rat at 0.5 umol/kg, iv by LC-MS/MS method
- Assay type: ADME, organism-based
- stated conditions: in vivo
measured attribute: clearance

Prompt: Need clearance of CC1=C(CC(=O)NCc2cc(Cl)ccc2CN)C(=O)N(NCc2cccc(C(=O)O)c2)CC1 , thanks.
Completion: 32.4 mL/min/kg

----------
- protocol: Apparent permeability across apical to basolateral side in human Caco2 cells at 10 uM after 45 to 120 mins by ultraperformance LC/MS/MS method
- stated conditions: Caco-2
measured attribute: Papp A→B at 10 µM (×10⁻⁶ cm/s)
One number for each entry, in ×10⁻⁶ cm/s.

Worked cases, answers included:
{"molecule": "CC1=C2CC(=O)NCc3cc(Cl)ccc3CNC(=O)OC(C)OC(=O)c3cccc(c3)CNN(CC1)C2=O (stereo not drawn)", "quantity unit": "×10⁻⁶ cm/s", "Papp A→B at 10 µM": 45}
{"molecule": "CC1=C(CC(=O)NCc2cc(Cl)ccc2CN)C(=O)N(NCc2cccc(C(=O)O)c2)CC1", "quantity unit": "×10⁻⁶ cm/s", "Papp A→B at 10 µM": 0.1}

Prompt: Need Papp A→B at 10 µM of CC1=C2CC(=O)NCc3cc(Cl)ccc3CNC(=O)OCOC(=O)c3cccc(c3)CNN(CC1)C2=O , thanks.
Completion: 48

----------
- protocol: Apparent terminal half life in Han Wistar rat at 1 umol/kg administered intraduodenally by LC-MS/MS method
- Type: ADME
- stated conditions: in vivo, read-out: betat1/2(app) (converted)
measured attribute: half-life (min)
Numbers only, in min.

Prompt: Need half-life of CC1=C2CC(=O)NCc3cc(Cl)ccc3CNC(=O)OCOC(=O)c3cccc(c3)CNN(CC1)C2=O , thanks.
Completion: 6.6

----------
- Species: Rattus norvegicus
- protocol: Antithrombotic activity in rat caval vein thrombosis model assessed as prevention of venous thrombosis
- Format: functional, organism-based
I'd be grateful if you could share measured IC50 for these entries.
Put your answer as a value accompanied by its unit after it.

{"record smiles": "CC1=C(CC(=O)NCc2cc(Cl)ccc2CN)C(=O)N(NCc2ccccc2)CC1", "IC50": "72 nM"}

Prompt: Need IC50 of CC1=C(CC(=O)NCc2cc(Cl)ccc2CN)C(=O)N(NCc2cccc(C(=O)O)c2)CC1 , thanks.
Completion: 97 nM

----------
- protocol: Inhibition of human tissue factor/F7a using spectrozyme as substrate preincubated for 300 secs followed by substrate addition measured after 40 mins
I'd be grateful if you could share measured Ki for these entries.

{"record smiles": "CC1=C(CC(=O)NCc2cc(Cl)ccc2CN)C(=O)N(NCc2cccc(C(=O)O)c2)CC1", "test value": "> 33 µM"}

Please examine the following record next.
Prompt: Need Ki of CC1=C(CC(=O)NCc2cc(Cl)ccc2CN)C(=O)N(NCc2ccccc2)CC1 , thanks.
Completion: > 33 µM

----------
- protocol: Intrinsic clearance in Sprague-Dawley rat liver microsomes at 1 umol/L after 7 to 30 mins by LC-MS/MS method
- Type: ADME, Microsome
- stated conditions: read-out: CLH
measured attribute: microsomal CLint at 1 µM (µL/min/mg)
Answers are plain numbers, in µL/min/mg.

Prompt: Need microsomal CLint at 1 µM of CC1=C(CC(=O)NCc2cc(Cl)ccc2CN)C(=O)N(NCc2ccccc2)CC1 , thanks.
Completion: 150

----------
- target of assay: Prothrombin (Homo sapiens)
measured attribute: Ki (µM)
Numbers only, in µM.

Prompt: Need Ki of CC1=C2CC(=O)NCc3cc(Cl)ccc3CNC(=O)OCOC(=O)c3cccc(c3)CNN(CC1)C2=O , thanks.
Completion: 0.2

----------
- Tested on: Plasma
- protocol: Anticoagulant activity in human citrated plasma assessed as concentration required to double activated partial thromboplastin time after 3 mins by coagulation analyser
- Format: functional, cell-free
- stated conditions: 0.05 h
I'd be grateful if you could share measured pIC50 for these entries.
Answers are plain numbers, as −log10 of the molar value.

{"record smiles": "CC1=C(CC(=O)NCc2cc(Cl)ccc2CN)C(=O)N(NCc2cccc(C(=O)O)c2)CC1", "target of assay": "Plasma", "test value": 5.92}

Please examine the following record next.
Prompt: Need pIC50 of CC1=C(CC(=O)NCc2cc(Cl)ccc2CN)C(=O)N(NCc2ccccc2)CC1 , thanks.
Completion: 6.17

----------
- protocol: physchem
- stated conditions: 1-octanol/phosphate buffer, pH 7.4
measured attribute: logD at 3 h

Worked cases, answers included:
{"compound": "CC1=C2CC(=O)NCc3cc(Cl)ccc3CNC(=O)OCOC(=O)c3cccc(c3)CNN(CC1)C2=O", "test value": 2.3}
{"compound": "CC1=C(CC(=O)NCc2cc(Cl)ccc2CN)C(=O)N(NCc2cccc(C(=O)O)c2)CC1", "test value": -0.5}

Please examine the following record next.
Prompt: Need logD at 3 h of CC1=C2CC(=O)NCc3cc(Cl)ccc3CNC(=O)OC(C)OC(=O)c3cccc(c3)CNN(CC1)C2=O (stereo not drawn) , thanks.
Completion: 2.6

----------
- protocol: Cmax in Han Wistar rat at 1 umol/kg administered intraduodenally by LC-MS/MS method
- Assay type: ADME
- Design: dose 1 umol/kg, route intraduodenal
- stated conditions: in vivo
measured attribute: Cmax (nM)
Numbers only, in nM.

Prompt: Need Cmax of CC1=C2CC(=O)NCc3cc(Cl)ccc3CNC(=O)OCOC(=O)c3cccc(c3)CNN(CC1)C2=O , thanks.
Completion: 108

----------
- protocol: Oral bioavailability in Han Wistar rat at 1 umol/kg administered via gavage by LC-MS/MS method
- Format: ADME, organism-based
- stated conditions: in vivo
measured attribute: bioavailability (%)
One number for each entry, in %.

Prompt: Need bioavailability of CC1=C(CC(=O)NCc2cc(Cl)ccc2CN)C(=O)N(NCc2cccc(C(=O)O)c2)CC1 , thanks.
Completion: 0.5

----------
- target of assay: Plasminogen (Homo sapiens)
- Sequence (P00747 97-580 limits assumed): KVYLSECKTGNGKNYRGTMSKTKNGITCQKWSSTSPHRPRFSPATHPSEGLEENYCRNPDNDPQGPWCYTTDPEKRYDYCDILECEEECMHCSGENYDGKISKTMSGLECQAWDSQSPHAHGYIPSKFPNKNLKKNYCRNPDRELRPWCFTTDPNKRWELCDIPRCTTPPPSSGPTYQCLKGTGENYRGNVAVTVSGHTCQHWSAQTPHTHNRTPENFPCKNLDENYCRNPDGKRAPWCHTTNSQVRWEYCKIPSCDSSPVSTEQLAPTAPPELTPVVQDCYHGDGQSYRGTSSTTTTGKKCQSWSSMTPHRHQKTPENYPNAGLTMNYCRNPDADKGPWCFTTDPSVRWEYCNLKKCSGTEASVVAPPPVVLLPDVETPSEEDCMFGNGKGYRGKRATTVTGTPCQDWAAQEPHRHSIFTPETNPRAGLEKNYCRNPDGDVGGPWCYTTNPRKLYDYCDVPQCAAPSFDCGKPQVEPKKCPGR
- Sequence (P00747 581-810 limits assumed): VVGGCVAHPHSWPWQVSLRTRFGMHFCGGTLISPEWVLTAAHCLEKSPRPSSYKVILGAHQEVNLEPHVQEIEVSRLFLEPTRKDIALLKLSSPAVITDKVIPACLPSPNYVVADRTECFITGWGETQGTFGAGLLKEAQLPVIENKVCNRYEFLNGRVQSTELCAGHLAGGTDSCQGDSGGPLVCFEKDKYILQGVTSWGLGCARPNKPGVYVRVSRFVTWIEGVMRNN
measured attribute: Ki

Prompt: Need Ki of CC1=C(CC(=O)NCc2cc(Cl)ccc2CN)C(=O)N(NCc2cccc(C(=O)O)c2)CC1 , thanks.
Completion: > 19 µM

----------
- protocol: AUCinfinity in Han Wistar rat at 1 umol/kg, po administered via gavage by LC-MS/MS method
- Format: ADME, organism-based
- Design: dose 1 umol/kg, time infinity, route oral
- stated conditions: in vivo
measured attribute: AUC(0-inf) (nM·h)
Answers are plain numbers, in nM·h.

Prompt: Need AUC(0-inf) of CC1=C(CC(=O)NCc2cc(Cl)ccc2CN)C(=O)N(NCc2cccc(C(=O)O)c2)CC1 , thanks.
Completion: 2.5

----------
pKi: −log10 of the molar value.
Record set of pKi for target or system Coagulation factor IX (Homo sapiens, UniProt P00740).

{"record smiles": "CC1=C(CC(=O)NCc2cc(Cl)ccc2CN)C(=O)N(NCc2cccc(C(=O)O)c2)CC1", "pKi": "< 4.54"}

Prompt: What reported pKi corresponds to CC1=C(CC(=O)NCc2cc(Cl)ccc2CN)C(=O)N(NCc2ccccc2)CC1 on Coagulation factor IX (Homo sapiens, UniProt P00740)?
Completion: < 4.54

----------
- protocol: Apparent terminal half life in Han Wistar rat at 0.5 umol/kg, iv by LC-MS/MS method
- Format: ADME, organism-based
- stated conditions: in vivo, read-out: betat1/2(app) (converted)
measured attribute: half-life (min)
Numbers only, in min.

Prompt: Need half-life of CC1=C(CC(=O)NCc2cc(Cl)ccc2CN)C(=O)N(NCc2cccc(C(=O)O)c2)CC1 , thanks.
Completion: 21

----------
- target of assay: Cytochrome P450 3A4 (Homo sapiens, UniProt P08684)
- Sequence (P08684 whole entry): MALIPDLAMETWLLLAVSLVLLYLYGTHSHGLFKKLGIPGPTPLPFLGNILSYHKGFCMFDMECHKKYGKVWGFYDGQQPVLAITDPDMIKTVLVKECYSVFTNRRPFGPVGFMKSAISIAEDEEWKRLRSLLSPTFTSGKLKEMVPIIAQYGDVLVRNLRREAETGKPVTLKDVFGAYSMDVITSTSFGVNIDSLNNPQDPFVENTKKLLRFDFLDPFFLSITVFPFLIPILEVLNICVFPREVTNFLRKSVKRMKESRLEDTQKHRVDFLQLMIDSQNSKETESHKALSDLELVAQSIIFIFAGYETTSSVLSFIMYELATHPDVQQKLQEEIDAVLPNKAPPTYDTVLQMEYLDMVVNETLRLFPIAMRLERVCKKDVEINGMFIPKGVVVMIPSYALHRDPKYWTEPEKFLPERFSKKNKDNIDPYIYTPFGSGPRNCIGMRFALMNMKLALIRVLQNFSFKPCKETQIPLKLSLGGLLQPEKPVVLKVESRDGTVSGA
measured attribute: IC50 (µM)
Answers are plain numbers, in µM.

Prompt: Need IC50 of CC1=C(CC(=O)NCc2cc(Cl)ccc2CN)C(=O)N(NCc2ccccc2)CC1 , thanks.
Completion: 13

----------
- protocol: Efflux ratio of apparent permeability across basolateral to apical over apical to basolateral side in human Caco2 cells at 10 uM after 45 to 120 mins by ultraperformance LC/MS/MS method
- stated conditions: Caco-2
measured attribute: efflux ratio at 10 µM
One number for each entry.

Worked cases, answers included:
{"compound": "CC1=C(CC(=O)NCc2cc(Cl)ccc2CN)C(=O)N(NCc2cccc(C(=O)O)c2)CC1", "efflux ratio at 10 µM": 2.4}
{"compound": "CC1=C2CC(=O)NCc3cc(Cl)ccc3CNC(=O)OC(C)OC(=O)c3cccc(c3)CNN(CC1)C2=O (stereo not drawn)", "efflux ratio at 10 µM": 4.8}

Please examine the following record next.
Prompt: Need efflux ratio at 10 µM of CC1=C2CC(=O)NCc3cc(Cl)ccc3CNC(=O)OCOC(=O)c3cccc(c3)CNN(CC1)C2=O , thanks.
Completion: 5.6

----------
- protocol: AUCinfinity in Han Wistar rat at 0.5 umol/kg, iv by LC-MS/MS method
- Type: ADME, organism-based
- Parameters: dose 0.5 umol/kg, time infinity, route intravenous
- stated conditions: in vivo
measured attribute: AUC(0-inf)
Put your answer as a value accompanied by its unit after it.

Prompt: Need AUC(0-inf) of CC1=C(CC(=O)NCc2cc(Cl)ccc2CN)C(=O)N(NCc2cccc(C(=O)O)c2)CC1 , thanks.
Completion: 0.258 µM·h
